Entry source: ChEMBL document CHEMBL1157703

molecular target: Sodium-dependent noradrenaline transporter (Homo sapiens) (UniProt P23975); assay: Inhibition of NET PDSP analysis
Sequence (P23975 whole entry): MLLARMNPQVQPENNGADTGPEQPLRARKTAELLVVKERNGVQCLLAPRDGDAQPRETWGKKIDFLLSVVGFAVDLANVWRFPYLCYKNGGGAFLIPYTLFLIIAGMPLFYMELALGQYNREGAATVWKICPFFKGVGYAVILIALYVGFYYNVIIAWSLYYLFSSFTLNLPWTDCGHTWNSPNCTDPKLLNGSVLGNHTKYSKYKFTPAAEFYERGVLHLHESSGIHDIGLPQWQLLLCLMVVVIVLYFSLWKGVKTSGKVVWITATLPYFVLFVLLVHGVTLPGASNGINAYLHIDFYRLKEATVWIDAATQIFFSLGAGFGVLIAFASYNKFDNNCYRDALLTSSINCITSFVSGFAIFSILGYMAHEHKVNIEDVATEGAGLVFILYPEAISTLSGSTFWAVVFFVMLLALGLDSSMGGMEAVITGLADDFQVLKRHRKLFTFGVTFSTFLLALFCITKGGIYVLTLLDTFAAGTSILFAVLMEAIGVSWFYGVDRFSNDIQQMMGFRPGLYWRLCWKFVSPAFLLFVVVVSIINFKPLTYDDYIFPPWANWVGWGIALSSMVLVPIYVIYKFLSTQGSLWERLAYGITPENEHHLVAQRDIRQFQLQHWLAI
Property Name: Ki

# input Recorded Ki for NC[C@H](O)c1ccc(O)c(O)c1 with Sodium-dependent noradrenaline transporter (Homo sapiens) (UniProt P23975), please?
# output > 10 µM

====

target: GABA-A receptor; alpha-1/beta-2/gamma-2 (Homo sapiens, UniProt P14867+P18507+P47870); assay: Displacement of [3H]flunitrezepam from GABA-A alpha-1-beta-2-gamma-2 receptor by liquid scintillation counting
Sequence (P14867 whole entry): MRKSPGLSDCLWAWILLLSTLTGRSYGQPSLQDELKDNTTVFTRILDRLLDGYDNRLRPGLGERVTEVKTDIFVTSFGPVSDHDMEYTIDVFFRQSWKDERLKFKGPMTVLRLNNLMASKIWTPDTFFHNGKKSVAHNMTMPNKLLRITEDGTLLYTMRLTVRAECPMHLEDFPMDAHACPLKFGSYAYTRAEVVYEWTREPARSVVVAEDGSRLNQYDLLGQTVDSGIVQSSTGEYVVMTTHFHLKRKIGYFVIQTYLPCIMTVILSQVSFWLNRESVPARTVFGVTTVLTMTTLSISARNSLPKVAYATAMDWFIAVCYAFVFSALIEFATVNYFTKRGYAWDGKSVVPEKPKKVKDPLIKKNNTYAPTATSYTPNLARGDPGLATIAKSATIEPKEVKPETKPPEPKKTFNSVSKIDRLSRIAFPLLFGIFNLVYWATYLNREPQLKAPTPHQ
Sequence (P47870 whole entry): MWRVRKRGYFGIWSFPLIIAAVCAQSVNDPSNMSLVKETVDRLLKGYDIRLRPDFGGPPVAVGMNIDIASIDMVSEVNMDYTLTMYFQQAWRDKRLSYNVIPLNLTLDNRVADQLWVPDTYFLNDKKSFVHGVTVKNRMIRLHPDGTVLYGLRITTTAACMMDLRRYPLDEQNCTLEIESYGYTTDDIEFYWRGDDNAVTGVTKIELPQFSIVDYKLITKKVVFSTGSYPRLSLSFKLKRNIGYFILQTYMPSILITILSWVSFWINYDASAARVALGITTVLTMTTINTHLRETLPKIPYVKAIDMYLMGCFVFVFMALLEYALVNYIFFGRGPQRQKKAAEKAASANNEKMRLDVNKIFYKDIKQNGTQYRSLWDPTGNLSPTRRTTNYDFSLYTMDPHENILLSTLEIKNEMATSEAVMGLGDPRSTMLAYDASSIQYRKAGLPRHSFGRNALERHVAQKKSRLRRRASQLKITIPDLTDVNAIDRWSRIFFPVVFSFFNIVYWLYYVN
Sequence (P18507 whole entry): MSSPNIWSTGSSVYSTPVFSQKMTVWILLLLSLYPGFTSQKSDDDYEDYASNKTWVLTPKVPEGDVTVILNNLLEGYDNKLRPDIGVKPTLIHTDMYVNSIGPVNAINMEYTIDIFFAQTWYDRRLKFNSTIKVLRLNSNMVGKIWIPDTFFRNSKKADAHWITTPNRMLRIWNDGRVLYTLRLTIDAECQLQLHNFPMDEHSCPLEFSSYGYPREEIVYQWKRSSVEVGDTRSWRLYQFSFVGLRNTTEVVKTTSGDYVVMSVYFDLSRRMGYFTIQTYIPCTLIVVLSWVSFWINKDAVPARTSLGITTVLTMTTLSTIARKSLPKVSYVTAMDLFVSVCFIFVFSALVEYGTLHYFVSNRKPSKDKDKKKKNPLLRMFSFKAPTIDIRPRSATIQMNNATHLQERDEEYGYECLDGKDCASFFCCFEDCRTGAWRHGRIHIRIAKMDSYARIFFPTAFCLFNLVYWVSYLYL
Property Name: Ki (nM)
Number in nM, nothing else.

# input Any idea what Ki was measured for COc1ccc2c3c(oc2c1)C(=O)Nc1cccc[n+]1C3.[Cl-] ?
# output 746
